From: patent US20260193366A1

# Measured target: T1, hIL-4Rα on cells (human, UniProt P24394 26-825)
# T1 sequence: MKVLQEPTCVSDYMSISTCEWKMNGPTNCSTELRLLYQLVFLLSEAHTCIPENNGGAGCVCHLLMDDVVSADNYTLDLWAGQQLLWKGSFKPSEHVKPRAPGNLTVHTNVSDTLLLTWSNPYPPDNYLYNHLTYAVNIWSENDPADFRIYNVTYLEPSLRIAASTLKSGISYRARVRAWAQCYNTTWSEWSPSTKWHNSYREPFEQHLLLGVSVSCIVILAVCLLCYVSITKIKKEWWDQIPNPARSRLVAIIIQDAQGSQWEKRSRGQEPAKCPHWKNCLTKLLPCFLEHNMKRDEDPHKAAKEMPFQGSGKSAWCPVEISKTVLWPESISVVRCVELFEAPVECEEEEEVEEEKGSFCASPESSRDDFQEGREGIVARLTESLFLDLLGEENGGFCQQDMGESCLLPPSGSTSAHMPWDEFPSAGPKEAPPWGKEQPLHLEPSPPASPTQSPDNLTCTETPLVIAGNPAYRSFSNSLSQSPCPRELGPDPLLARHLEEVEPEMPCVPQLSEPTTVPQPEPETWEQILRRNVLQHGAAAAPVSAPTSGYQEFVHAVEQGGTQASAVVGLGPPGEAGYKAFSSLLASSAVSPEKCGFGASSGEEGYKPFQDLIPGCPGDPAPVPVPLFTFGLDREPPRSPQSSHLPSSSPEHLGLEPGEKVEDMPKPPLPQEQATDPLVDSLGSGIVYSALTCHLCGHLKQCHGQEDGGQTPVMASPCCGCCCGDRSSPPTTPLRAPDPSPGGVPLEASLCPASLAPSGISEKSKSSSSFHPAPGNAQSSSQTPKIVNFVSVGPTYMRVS
# Assay info: cell-based or functional assay
Observation type: Relative Inhibition of IL-13 induced TF-1 Proliferation IC50

Look over these answered cases.
[[record]]
binder = "Construct 18 (mAb426) (antibody, IgG4, V domains shown, VH/VL only) VH: EVQLVESGGGLEQPGGSLRLSCAGSGFTFRDFAMTWVRQAPGKGLEWVSSISGSGDNTYYADSVKGRFTISRDNSKNTLYLQMNSLRAEDTAVYYCAKDRLSKTIRPRYYGLDVWGQGTTVTVSS VL: DIVMTQSPLSLPVTPGEPASISCTSSQSLLYSIGKNYVDWYLQKSGQSPQLLIYLGNKRASGVPDRFSGSGSGTDFTLKISRVEAEDVGFYYCMQSLTSPYTFGQGTKLEIK"
reported_result = "0.606 relative to dupilumab"

[[record]]
binder = "Construct 22 (mAb430) (antibody, IgG4, V domains shown, VH/VL only) VH: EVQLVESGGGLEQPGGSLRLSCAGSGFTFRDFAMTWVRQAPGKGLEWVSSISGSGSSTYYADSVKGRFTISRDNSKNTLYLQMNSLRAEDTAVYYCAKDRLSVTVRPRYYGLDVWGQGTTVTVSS VL: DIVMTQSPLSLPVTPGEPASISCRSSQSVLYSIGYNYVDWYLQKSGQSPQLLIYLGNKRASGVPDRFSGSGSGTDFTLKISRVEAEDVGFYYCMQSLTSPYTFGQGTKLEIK"
reported_result = "0.495 relative to dupilumab"

[[record]]
binder = "Construct 46 (mAb501) (antibody, IgG4, V domains shown, VH/VL only) VH: EVQLVESGGGLEQPGGSLRLSCAGSGFTFRDSAMTWVRQAPGKGLEWVSSISGSGDGTYYADSVKGRFTISRDNSKNTLYLQMNSLRAEDTAVYYCAKDRLSIYIRPRYYGLDVWGQGTTVTVSS VL: DIVMTQSPLSLPVTPGEPASISCTSSQSLLYSIGYNYVDWYLQKSGQSPQLLIYLGNKRASGVPDRFSGSGSGTDFTLKISRVEAEDVGFYYCMQALQTPYTFGQGTKLEIK"
reported_result = "1.28 relative to dupilumab"

[[record]]
binder = "Construct 38 (mAb471) (antibody, IgG4, V domains shown, VH/VL only) VH: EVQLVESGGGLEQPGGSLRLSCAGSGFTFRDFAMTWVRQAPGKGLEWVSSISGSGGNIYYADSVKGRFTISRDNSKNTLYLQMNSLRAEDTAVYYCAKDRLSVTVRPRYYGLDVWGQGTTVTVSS VL: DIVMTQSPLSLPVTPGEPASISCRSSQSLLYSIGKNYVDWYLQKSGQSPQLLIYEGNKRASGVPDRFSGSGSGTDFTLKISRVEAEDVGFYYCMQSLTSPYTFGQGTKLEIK"
reported_result = "1.2 relative to dupilumab"


*Q* Note down Relative Inhibition of IL-13 induced TF-1 Proliferation IC50 recorded for Construct 1 (mAb410) (antibody, IgG4, V domains shown, VH/VL only) VH: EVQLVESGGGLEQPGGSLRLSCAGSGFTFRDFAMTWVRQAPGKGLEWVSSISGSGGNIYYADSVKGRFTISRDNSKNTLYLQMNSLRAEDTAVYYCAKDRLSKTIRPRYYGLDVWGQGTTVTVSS VL: DIVMTQSPLSLPVTPGEPASISCRSSQSVLYSIGYNYVDWYLQKSGQSPQLLIYLGSKRASGVPDRFSGSGSGTDFTLKISRVEAEDVGFYYCMQSLDTPYTFGQGTKLEIK
*A* 1.37 relative to dupilumab

*Q* Note down Relative Inhibition of IL-13 induced TF-1 Proliferation IC50 recorded for Construct 42 (mAb481) (antibody, IgG4, V domains shown, VH/VL only) VH: EVQLVESGGGLEQPGGSLRLSCAGSGFTFRTYAMTWVRQAPGKGLEWVSSISGDGSNTYYADSVKGRFTISRDNSKNTLYLQMNSLRAEDTAVYYCAKDRVSITIRPRYYGLDVWGQGTTVTVSS VL: DIVMTQSPLSLPVTPGEPASISCTASQSLLYSIGYNYVDWYLQKSGQSPQLLIYLGNKRASGVPDRFSGSGSGTDFTLKISRVEAEDVGFYYCMQALTTPYTFGQGTKLEIK
*A* 1.19 relative to dupilumab
